assayed-target: wild-type HIV-1 protease (Human immunodeficiency virus type 1 group M subtype B)
We label by threshold. Values of IC50 strictly beneath 4 nM are TRUE. Values of 4 nM and up are FALSE.

Examples from the recorded data:
compound	class-label
COc1ncc2c(n1)CN(C(=O)c1cccc(CN3C(=N)NC(c4ccc(F)cc4)(c4ccc(F)cc4)C3=O)c1)C2	FALSE
N=C1NC(c2ccccc2)(c2ccccc2)C(=O)N1Cc1ccc(C(F)(F)F)c(C(=O)N2Cc3nccnc3C2)c1	TRUE
CN1CCN(C(=O)c2cc(CN3C(=N)NC(c4ccccc4)(c4ccccc4)C3=O)ccc2Cl)CC1=O	FALSE
N=C1NC(c2ccc(F)cc2)(c2cccc(C(N)=O)c2)C(=O)N1Cc1cccc(C(=O)N2Cc3ccccc3C2)c1 (stereo not drawn)	FALSE

Now turn to the next compound.
Threshold test, IC50 < 4 nM: N=C1NC(c2ccccc2)(c2ccc(-c3ccccc3)cc2)C(=O)N1Cc1cccc(C(=O)N2Cc3ccccc3C2)c1 (stereo not drawn)
FALSE

---

// each record: one item and its log10(IC50) for wild-type HIV-1 protease (Human immunodeficiency virus type 1 group M subtype B)
Transform log10 | Measure IC50 | Unit nM

Solved entries:
> print(dat)
                         structure.notation                            assayed.target  number
1  N=C1NC(c2ccc(F)cc2)(c2ccc(F)cc2)C(=O)N1Cc1cccc(C(=O)N2Cc3ccccc3C2)c1  wild-type HIV-1 protease (Human immunodeficiency virus type 1 group M subtype B)    1.76
2  N=C1NC(c2ccccc2)(c2ccccc2)C(=O)N1Cc1ccc(Cl)c(C(=O)N2CCNC(=O)C2)c1  wild-type HIV-1 protease (Human immunodeficiency virus type 1 group M subtype B)    1.05
3  COCC(=O)N1CCN(C(=O)c2cc(CN3C(=N)N[C@](CCCC(F)(F)F)(c4ccc(F)cc4)C3=O)ccc2C(F)(F)F)CC1  wild-type HIV-1 protease (Human immunodeficiency virus type 1 group M subtype B)    1.49
4  N=C1N[C@](CCCC(F)(F)F)(c2ccc(F)cc2)C(=O)N1Cc1ccc(C(F)(F)F)c(C(=O)N2Cc3cnc(-c4cccc5[nH]ncc45)nc3C2)c1  wild-type HIV-1 protease (Human immunodeficiency virus type 1 group M subtype B)    0.37

Consider the record given below.
Under wild-type HIV-1 protease (Human immunodeficiency virus type 1 group M subtype B): log10(IC50) value of N=C1N[C@](CCCC(F)(F)F)(c2ccc(F)cc2)C(=O)N1Cc1ccc(C(F)(F)F)c(C(=O)N2CCn3cnnc3C2)c1 ?
1.32
